meta.source: patent US20240150377A1

# studySystem: UniProtKB P13569
# Sequence (P13569 with tags, fused parts or gaps DEL508-508): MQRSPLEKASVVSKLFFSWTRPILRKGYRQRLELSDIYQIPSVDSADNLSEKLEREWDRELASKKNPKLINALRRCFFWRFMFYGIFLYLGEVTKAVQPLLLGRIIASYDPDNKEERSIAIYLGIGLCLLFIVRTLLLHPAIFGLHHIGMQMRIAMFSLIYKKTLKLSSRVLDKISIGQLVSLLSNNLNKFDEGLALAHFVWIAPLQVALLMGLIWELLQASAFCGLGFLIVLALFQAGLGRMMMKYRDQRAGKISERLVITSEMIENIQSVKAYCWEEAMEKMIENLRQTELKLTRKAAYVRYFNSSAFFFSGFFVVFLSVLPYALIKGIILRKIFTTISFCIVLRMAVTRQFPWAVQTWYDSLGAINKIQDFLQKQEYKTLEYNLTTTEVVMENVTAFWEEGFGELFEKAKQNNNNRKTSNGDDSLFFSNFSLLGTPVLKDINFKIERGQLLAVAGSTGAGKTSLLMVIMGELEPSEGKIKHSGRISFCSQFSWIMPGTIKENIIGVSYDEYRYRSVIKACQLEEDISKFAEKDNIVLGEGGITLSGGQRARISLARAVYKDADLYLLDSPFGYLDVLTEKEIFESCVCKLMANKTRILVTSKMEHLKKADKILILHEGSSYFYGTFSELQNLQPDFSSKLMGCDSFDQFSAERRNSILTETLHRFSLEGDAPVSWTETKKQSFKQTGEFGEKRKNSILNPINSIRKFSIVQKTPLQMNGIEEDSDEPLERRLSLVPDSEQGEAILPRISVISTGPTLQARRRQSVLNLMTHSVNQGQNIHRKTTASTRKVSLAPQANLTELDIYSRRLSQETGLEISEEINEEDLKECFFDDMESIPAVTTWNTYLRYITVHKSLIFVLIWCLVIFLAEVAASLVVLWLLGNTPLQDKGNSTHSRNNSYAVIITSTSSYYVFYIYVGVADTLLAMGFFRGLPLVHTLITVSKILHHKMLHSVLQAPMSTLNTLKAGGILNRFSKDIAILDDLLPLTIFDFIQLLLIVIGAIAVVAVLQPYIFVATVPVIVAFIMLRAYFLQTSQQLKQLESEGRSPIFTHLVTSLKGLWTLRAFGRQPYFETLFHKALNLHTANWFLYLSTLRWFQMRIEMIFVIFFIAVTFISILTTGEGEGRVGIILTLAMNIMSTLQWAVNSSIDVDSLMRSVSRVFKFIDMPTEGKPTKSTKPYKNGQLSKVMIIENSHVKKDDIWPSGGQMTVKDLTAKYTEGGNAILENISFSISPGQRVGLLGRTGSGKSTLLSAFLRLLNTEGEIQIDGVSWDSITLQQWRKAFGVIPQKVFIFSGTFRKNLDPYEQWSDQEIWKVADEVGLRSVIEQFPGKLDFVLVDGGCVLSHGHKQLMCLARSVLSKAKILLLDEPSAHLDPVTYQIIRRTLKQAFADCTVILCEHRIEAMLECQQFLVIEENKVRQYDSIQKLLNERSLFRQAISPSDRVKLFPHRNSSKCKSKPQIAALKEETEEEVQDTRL
# assayInfo: Membrane potential dye, Enteroid Assay B
# Assay type: cell-based
# measurementParameters: Table 8; chloride transport as % of triple combination control (Enteroid Assay B)
assayReadout: Ent. B Max Activity

The examples below pair each entry with its known result.
Cc1cccc(C)c1-c1cc2nc(n1)NS(=O)(=O)c1cc(n(C)n1)C(=O)N(Cc1ncccn1)[C@H](CC(C)(C)C)CO2 | +++ (+++ is >60%)
CC(=O)NCCCN1C(=O)c2cccc(c2)S(=O)(=O)Nc2nc(cc(-c3c(C)cccc3C)n2)OC[C@H]1CC(C)C | +++ (+++ is >60%)
Cc1cccc(C)c1-c1cc2nc(n1)NS(=O)(=O)c1cccc(c1)C(=O)N(Cc1ccc(C(C)(C)O)cn1)[C@H](CC(C)(C)C)CO2 | +++ (+++ is >60%)
COCCCN1C(=O)c2cccc(c2)S(=O)(=O)Nc2nc(cc(-c3c(C)cccc3C)n2)OC[C@H]1CC(C)C | +++ (+++ is >60%)

Then this compound:
Which Ent. B Max Activity value is on record for `Cc1ncc(CN2C(=O)c3cc(nn3C)S(=O)(=O)Nc3nc(cc(-c4c(C)cccc4C)n3)OC[C@H]2CC(C)(C)C)cn1` ?
++ (++ is 30-60%)
